These entries and their values trace back to PubChem BioAssay (NCI).

System: OVCAR-5 ovarian
Experiment: NCI-60 one-dose screen, 48 h (100 = growth as untreated, 0 = no growth, -100 = all killed)
Details: 10 µM unless noted
Compounds without any hit were thinned out: in the full panel of roughly 83,000, 20% have a hit.
Provide the reported growth of each item.
Write the answer as a number in %, unit excluded.

Form: compound = COCCn1cc(-c2csc(-c3c[nH]c4ccccc34)n2)c2cccnc21 ; growth = 75.7

Reported growth for CCCCn1c(NC(C)=O)c(S(=O)(=O)c2ccccc2)c2nc3ccccc3nc21 was 93.2

// recorded growth for Cc1ccc(NC(=O)c2sc3nc(C)c(C(O)c4ccccc4)cc3c2N)cc1 (stereo not given) : 34.6

Entry Cc1cc(=O)oc2cc(Oc3nc(Br)cn4c(Br)cnc34)ccc12 — recorded growth = 101

Record Cc1cccc(NC(=O)Cn2cc(CN3CCN(c4ccnc5cc(Cl)ccc45)CC3)nn2)c1 , field growth: 96.8

compound O=C1/C(=C/c2cccc(Br)c2)COc2ccc(O)cc21 , growth observed: 89.8

Measured growth, N#CSc1c[nH]c2ccc(/C=C/C(=O)/C=C(O)/C=C/c3ccc4[nH]cc(SC#N)c4c3)cc12 : 67.4

Data point: O=c1cc(-c2ccccc2)nc(SCc2nc3cc(Cl)c(Cl)cc3[nH]2)[nH]1 ; growth = 95.2

Reported growth for Nc1c(C(=O)Nc2cccc3ncccc23)sc2nc3c(cc12)CN(Cc1ccccc1)CC3 was 88.8

// growth lookup, compound = COc1ccc(-c2nc(SCC(=O)Nc3nc4ccc(C)cc4s3)[nH]c(=O)c2C#N)cc1OC , result: 111
